# Tgt: Voltage-gated potassium channel subunit beta-2 (Rattus norvegicus)
# Procedure Text: KvBeta enzyme negative modulators, primary screen, biochemical, NADPH fluorescence (AID 622);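 further: slope of raw intensity against log time taken from 70 to 1610 s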
# Condition: recombinant KvBeta, 4-cyanobenzaldehyde reduction, at 10 µM, stronger effect = higher value
Metric Name: fluorescence slope
// no unit string in output, number only

Below, each entry is followed by its recorded fluorescence slope result.
Please give the measured fluorescence slope for this molecule: COc1ccc2c(c1)c(CC(=O)OCC(=O)O)c(C)n2C(=O)c1ccc(Cl)cc1
-0.451

Same lookup for COC(=O)C1=C(N)Oc2cc(C)oc(=O)c2C1c1ccncc1 (stereo unspecified) , please.
-0.404

Same lookup for c1csc(-c2nn3c(C4CCCCC4)nnc3s2)c1 , please.
-0.426

Next:
Please give the measured fluorescence slope for this molecule: COc1cccc(-c2nc(NC(C)C)c3ccccc3n2)c1O
-0.436

Same lookup for Clc1cccc(-c2nn3c(COc4ccccc4)nnc3s2)c1 , please.
-0.412

Same lookup for Cc1cc(C)n(Cc2ccc(C(=O)NCCC3=CCCCC3)o2)n1 , please.
-0.456

Same lookup for CCNC(=O)N(C(=O)NCC)n1c(C)nnc1C , please.
-0.413

Same lookup for C[C@@H]1CCC[C@H](C)N1NC(=O)c1ccc(Cl)c(S(N)(=O)=O)c1 , please.
-0.465

Same lookup for N=c1ncn(CC(O)CN2CCOCC2)c2nc(N3CCOCC3)[nH]c12 (stereo unspecified) , please.
-0.517

Same lookup for O=C(NCCCn1ccnc1)C(Cc1ccccc1)N1C(=O)c2ccccc2C1=O (stereo unspecified) , please.
-0.46

Same lookup for CCCC(=O)N(Cc1cc2ccccc2[nH]c1=O)c1ccccc1OC , please.
-0.364

###

# Procedure Text: inhibitors of TNFa-induced NFkB p65 translocation, primary screen, imaging, HUVEC, MLSMR starter and 10KST1 sets (AID 438);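 further: compound added about 3h40 before a 20 min TNFalpha stimulation; signal is the nuclear over cytoplasmic p65 intensity ratio per well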
# Condition: HUVEC TNFa-induced p65 nuclear translocation; at 2 µM, stronger effect = higher value, 0% TNFa-plus-vehicle, 100% no-TNFa wells
Reported inhibition values for the following compounds.
Supply the numeric figure in %, leaving out any unit text.

Below, each entry is followed by its recorded inhibition result.
Please give the measured inhibition for this compound: Cc1nc(Nc2ncc3c(n2)CCCC3=O)nc2ccccc12
3.8

Same lookup for COCCOC(=O)c1c(C)nc(SCC(=O)Nc2ccc(OC)cc2)c(C#N)c1-c1ccco1 , please.
-17.9

Same lookup for CCc1cccc(CC)c1N(COC)C(=O)Cn1nnc2ccccc21 , please.
-11

Next:
Please give the measured inhibition for this compound: CCOCc1nc(N)[nH]c(=O)c1Cc1ccc(OC(C)C)cc1
-14.1

Same lookup for COC(=O)c1ccc(-c2sc3nc(N4CCOCC4)c4c(c3c2N)CC(C)(C)OC4)o1 , please.
-19.5

###

# Procedure Text: inhibitors of TNFa-induced NFkB p65 translocation, primary screen, imaging, HUVEC, MLSMR starter and 10KST1 sets (AID 438);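 further: compound added about 3h40 before a 20 min TNFalpha stimulation; signal is the nuclear over cytoplasmic p65 intensity ratio per well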
# Condition: HUVEC TNFa-induced p65 nuclear translocation; at 2 µM, stronger effect = higher value, 0% TNFa-plus-vehicle, 100% no-TNFa wells
Metric Name: inhibition (%)
Supply the numeric figure in %, leaving out any unit text.

Below, each entry is followed by its recorded inhibition result.
Please give the measured inhibition for this compound: C=CCSc1nnc2n(-c3ccccc3OC)c(=O)c3c4c(sc3n12)CCC4
-5.9

Same lookup for CCOc1nc(SCCOc2ccccc2)nc(N(C)C)n1 , please.
-7.1

Same lookup for O=C1C2ON(c3ccccc3)C(c3cccnc3)C2C(=O)N1c1ccccc1 (configuration not stated) , please.
-4.7

Same lookup for COC(=O)c1ccc(=O)n(Cc2ccco2)c1 , please.
-2.7

Same lookup for CC1(C)C/C(=C(/C#N)C(N)=O)CCO1 , please.
-11.9

Next:
Please give the measured inhibition for this compound: CC(C)(C)n1nnc(CCc2nnn(C(C)(C)C)n2)n1
-17.8

Same lookup for CCCC1C2C(=O)N(c3ccccc3OC)C(=O)C2ON1c1ccccc1 (configuration not stated) , please.
-20.4

Same lookup for Cc1c(O)c(CN2CCCC(C)C2)cc2c3c(c(=O)oc12)CCC3 (configuration not stated) , please.
-6.3

Same lookup for NC(=O)OCC(COC(N)=O)c1ccccc1 , please.
-7.6

Same lookup for Cc1nn(-c2ccccc2)c2c1C(=O)NC(=O)C(C)(C)C2 , please.
2.2

Same lookup for OCCNc1nc(-c2ccccc2)c2ccccc2n1 , please.
-4.7

Same lookup for COCCN(CCOC)C(=O)C12CCC(C)(C(=O)C1)C2(C)C (configuration not stated) , please.
-4.2

Same lookup for COC(=O)c1[nH]c(C)c(/C(O)=C2\C(=O)C(=O)N(CCN3CCOCC3)C2c2cccnc2)c1C (configuration not stated) , please.
-1.2

Same lookup for Cc1cc(C)n(C(=O)CN2C(=O)CCC2=O)n1 , please.
-19

Same lookup for CC(C)Cc1nc(N2CCN(C(=O)C(C)C)CC2)c(C#N)c2c1CCC2 , please.
1

Same lookup for Cc1ccc(N(CC(O)CN2CCCC2)S(=O)(=O)c2ccc(C)cc2)cc1 (configuration not stated) , please.
-5.4

Same lookup for Cc1occc1C(=O)OCC(=O)Nc1ccc(F)cc1 , please.
-1.1

Same lookup for CC(C)C1Cc2c(C#N)c(N)n(C)c(=S)c2CO1 (configuration not stated) , please.
1.3

Same lookup for COc1ccc(Nc2oc(-c3cccs3)nc2C#N)cc1 , please.
2.9

Same lookup for CCCCNC(=O)N1CCOCCOCCN(C(=O)NCCCC)CCOCCOCC1 , please.
-15.4

Same lookup for CCN(CC)S(=O)(=O)c1ccc2c(c1)c(C(=O)O)cn2C , please.
-15.2
